# TARGET_OF_ASSAY: Nicotinamide phosphoribosyltransferase (Mus musculus, UniProt Q99KQ4)
# Sequence (Q99KQ4 whole entry): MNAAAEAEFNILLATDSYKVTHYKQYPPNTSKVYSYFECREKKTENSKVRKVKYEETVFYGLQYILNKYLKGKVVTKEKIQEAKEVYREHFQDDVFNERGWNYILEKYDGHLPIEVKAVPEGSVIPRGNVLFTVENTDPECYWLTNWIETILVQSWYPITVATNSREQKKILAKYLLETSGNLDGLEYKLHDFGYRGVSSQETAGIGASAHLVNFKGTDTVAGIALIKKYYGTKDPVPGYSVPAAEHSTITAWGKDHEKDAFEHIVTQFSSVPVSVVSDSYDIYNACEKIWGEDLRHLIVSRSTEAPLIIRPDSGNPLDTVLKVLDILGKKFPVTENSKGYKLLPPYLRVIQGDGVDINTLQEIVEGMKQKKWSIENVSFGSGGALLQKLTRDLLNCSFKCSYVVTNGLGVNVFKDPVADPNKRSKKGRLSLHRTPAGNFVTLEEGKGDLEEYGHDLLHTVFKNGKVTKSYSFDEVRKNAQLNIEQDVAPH
# METHOD_SUMMARY: Activation of N-terminal 6His-tagged mouse NAMPT measured for 20 mins by fluorescence based spectrometer analysis
pEC50: −log10 of the molar value.

- COMPOUND_STRUCTURE: "O=C(NCc1ccc(CO)cc1)Nc1ccc(S(=O)(=O)N2CC3CCC(C2)O3)cc1"
  TARGET_OF_ASSAY: "Nicotinamide phosphoribosyltransferase (Mus musculus, UniProt Q99KQ4)"
  pEC50: 5.83

* * *

# TARGET_OF_ASSAY: Nicotinamide phosphoribosyltransferase (Homo sapiens)
# Sequence (P43490 whole entry): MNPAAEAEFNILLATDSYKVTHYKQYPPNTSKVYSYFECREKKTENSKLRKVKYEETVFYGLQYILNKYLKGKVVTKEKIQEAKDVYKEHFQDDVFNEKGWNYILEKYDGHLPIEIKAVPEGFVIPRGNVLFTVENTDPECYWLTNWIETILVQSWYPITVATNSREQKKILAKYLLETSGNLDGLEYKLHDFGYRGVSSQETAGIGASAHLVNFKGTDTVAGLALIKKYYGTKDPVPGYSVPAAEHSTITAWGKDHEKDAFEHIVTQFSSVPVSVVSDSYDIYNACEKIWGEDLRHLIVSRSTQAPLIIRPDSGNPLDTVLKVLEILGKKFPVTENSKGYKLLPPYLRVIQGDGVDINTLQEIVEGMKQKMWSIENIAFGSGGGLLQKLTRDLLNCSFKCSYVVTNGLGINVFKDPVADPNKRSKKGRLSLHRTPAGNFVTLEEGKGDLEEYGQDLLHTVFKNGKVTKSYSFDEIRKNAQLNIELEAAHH
# METHOD_SUMMARY: Activation of recombinant NAMPT (unknown origin) expressed in Escherichia coli by fluorescence based spectrometer analysis

- COMPOUND_STRUCTURE: "O=C1C=C2Cc3cc(O)c(O)cc3C(c3ccccc3O)=C2C=C1O"
  UNIT_SYMBOL: "µM"
  EC50: 3.5

* * *

# Test system: PC-3
# METHOD_SUMMARY: Anticancer activity against human PC-3 cells
# Type: functional, cell-based
RECORDED_METRIC: IC50

- COMPOUND_STRUCTURE: "N#C/N=C(\\NCCCCCCC(=O)N(Cc1ccccc1)OC1CCCCC1)Nc1ccncc1"
  RESULT: "0.3 nM"

* * *

# METHOD_SUMMARY: Anticancer activity against human NYH/VM cells assessed as reduction in cell growth
# Format: functional, cell-based
pIC50: −log10 of the molar value.
RECORDED_METRIC: pIC50

- COMPOUND_STRUCTURE: "N#C/N=C(\\NCCCCCCC(=O)N(Cc1ccccc1)OC1CCCCC1)Nc1ccncc1"
  QUANTITATIVE_READOUT: 10.70
